Origin of measurements: patent US20240360228A1

- target or test system: T1, human CCR8 (human, UniProt P51685 1-355)
- T1 construct: Native CCR8 on human PBMC (CCR8+ CD3+ or CCR8+ CD4+ lymphocytes); also called chemokine (C-C motif) receptor 8
- T1 sequence (P51685 whole entry): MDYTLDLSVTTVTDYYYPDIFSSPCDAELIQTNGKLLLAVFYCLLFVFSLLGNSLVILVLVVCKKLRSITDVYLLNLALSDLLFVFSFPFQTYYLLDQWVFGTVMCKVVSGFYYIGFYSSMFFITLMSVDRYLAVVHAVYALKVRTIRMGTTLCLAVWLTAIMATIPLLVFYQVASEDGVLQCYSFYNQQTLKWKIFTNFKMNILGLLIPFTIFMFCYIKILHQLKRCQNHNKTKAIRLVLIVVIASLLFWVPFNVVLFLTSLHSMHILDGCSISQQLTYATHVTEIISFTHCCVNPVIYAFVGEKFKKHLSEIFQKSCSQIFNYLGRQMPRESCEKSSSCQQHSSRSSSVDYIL
- assay method text: flow blocking, PBMC CCR8+CD4+; competitor PE-AB15
# Lookup of reported % Positive cells keyed by entry
observed property: % Positive cells (%)

* AB14 (antibody, V domains shown, Hybridoma monoclonal; Same VH/VL entries as AB15; also called antibody 14; clone 14) VH: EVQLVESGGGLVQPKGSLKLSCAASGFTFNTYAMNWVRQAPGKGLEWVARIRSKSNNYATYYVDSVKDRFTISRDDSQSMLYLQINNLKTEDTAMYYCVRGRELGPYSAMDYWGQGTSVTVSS VL: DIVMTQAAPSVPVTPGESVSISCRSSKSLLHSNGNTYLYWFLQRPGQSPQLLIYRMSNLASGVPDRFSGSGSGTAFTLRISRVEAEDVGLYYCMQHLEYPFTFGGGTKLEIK | 0.03
* AB4 (antibody, V domains shown, Hybridoma monoclonal; also called antibody 4; clone 4) VH: QVQLKESGPGLVKPSETLSLTCTVSGFSLTGYHVSWVRQPPGKGLEWMGVIWGDGRTTYNSALKSRLSISRDTSKSQVFLKMSSLKTEDTATYYCARGGDSGFAYWGQGTLVTVSS VL: DIQMTQSPASLSASLEEIVTITCQASQDIGNWLSWYQQKPGKSPQLLIYGATSLADGVPSRFSGSRSGTQFSLKISRLQVEDIGIYYCLQAYIVPLTFGSGTKLESK | 1.72
